Molecular target: SHP-2 enzyme (Homo sapiens, UniProt Q06124)
Construct: Homogeneous Full Length SHP-2 Assay Kit (BPS Bioscience #79330)
Test: Phosphatase activity assay (Homogeneous Full Length SHP-2 Assay Kit, DiFMUP substrate)
Settings: full length SHP-2 activated with 0.5 μM SHP-2 activating Peptide; 1 hour co-incubation; DiFMUP 50 μM, 30 min
pIC50: −log10 of the molar value.
Result type: pIC50

// compound CC1CN(C(=O)c2ncc(N3CCC4(CC3)Cc3ccccc3C4N)nc2N)c2cccnc21 (stereo not drawn) [Compound 57] , assay SHP-2 enzyme (Homo sapiens, UniProt Q06124), pIC50 value: 8.22

Given the compound Nc1ccc2c(n1)CCN2C(=O)c1ncc(N2CCC3(CC2)Cc2ccc(Cl)cc2C3N)nc1N (stereo not drawn) [Compound 91] and test system SHP-2 enzyme (Homo sapiens, UniProt Q06124), the measured pIC50 is 8.52

The recorded pIC50 with SHP-2 enzyme (Homo sapiens, UniProt Q06124) for Nc1nc(N2CCC3(CC2)Cc2cc(C(F)(F)F)ccc2C3N)cnc1C(=O)N1CCCn2nccc21 (stereo not drawn) [Compound 55] was 7.30

Record for Cc1nc(N2CCC3(CC2)Cc2ccccc2C3N)c(CO)nc1C(=O)N1CCCn2nccc21 (stereo not drawn) [Compound 43] under target or system SHP-2 enzyme (Homo sapiens, UniProt Q06124): pIC50 reported as 7.22

a. Nc1nc(N2CCC3(CC2)Cc2cc(Cl)ccc2C3N)cnc1C(=O)N1CCCn2nccc21 (stereo not drawn) [Compound 48]
b. Cc1nc(N2CCC3(CC2)Cc2ccccc2C3N)c(C(N)=O)nc1C(=O)N1CCCn2nccc21 (stereo not drawn) [Compound 44]
Of a and b , whose reported pIC50 is the larger number? Write the label of whichever entry you select.
a
(a: 8.40, b: 7.60)

1. Nc1nc(N2CCC3(CC2)Cc2ccncc2C3N)cnc1C(=O)N1CCCn2nccc21 (stereo not drawn) [Compound 79]
2. Nc1nc2c(s1)CN(C(=O)c1ncc(N3CCC4(CC3)Cc3ccccc3[C@H]4N)nc1N)CC2(F)F [Compound 63]
3. Nc1nc(N2CCC3(CC2)Cc2ccccc2C3N)c(Br)nc1C(=O)N1CCCn2ncc(Br)c21 (stereo not drawn) [Compound 29]
4. Nc1nc2c(s1)CN(C(=O)c1cnc(N3CCC4(CC3)Cc3ccccc3C4N)c(CO)n1)CC2(F)F (stereo not drawn) [Compound 126]
5. Nc1nc(N2CCC3(CC2)Cc2cc(F)ccc2C3N)cnc1C(=O)N1CCCn2nccc21 (stereo not drawn) [Compound 4]
Exam item: list the entries in increasing order of pIC50. # respond with the labels, arranged in the requested order
3, 1, 4, 2, 5
(3: 7.37, 1: 7.85, 4: 8.22, 2: 8.52, 5: 9.00)

a. Nc1nc2c(cc1F)N(C(=O)c1ncc(N3CCC4(CC3)Cc3ccccc3C4N)nc1N)CC2 (stereo not drawn) [Compound 109]
b. Cc1nc(C(=O)N2Cc3sc(N)nc3C(C)C2)c(N)nc1N1CCC2(CC1)Cc1ccccc1C2N (stereo not drawn) [Compound 105]
Consider entries a and b . Which has the numerically lower pIC50? When you have decided, please share the label of that item.
b
(b: 7.89, a: 8.52)

I. Cc1nc(N2CCC3(CC2)Cc2ccccc2C3N)c(CO)nc1C(=O)N1CCc2nc(N)ccc21 (stereo not drawn) [Compound 111]
II. CC1CN(C(=O)c2ncc(N3CCC4(CC3)Cc3ccccc3C4N)nc2N)c2ccc(N)nc21 (stereo not drawn) [Compound 89]
III. Nc1nc2c(s1)CN(C(=O)c1ncc(N3CCC4(CC3)Cc3ccccc3C4N)nc1N)CC2(F)F (stereo not drawn) [Compound 127]
Sort the 3 compounds by pIC50; largest first, smallest last. A complete answer lists every label in the requested sequence.
II, III, I
